# SYSTEM: T1, C-terminally FLAG-tagged human Gas6 recombinant protein (hGas6-F) (human, UniProt Q14393 31-678, gamma-carboxylated glutamic acid residues in the Gla domain (producer cells co-express rat VKOR and human GGCX); positions not given)
# T1 construct: also called human Gas6-F; human Gas6 protein
# T1 sequence: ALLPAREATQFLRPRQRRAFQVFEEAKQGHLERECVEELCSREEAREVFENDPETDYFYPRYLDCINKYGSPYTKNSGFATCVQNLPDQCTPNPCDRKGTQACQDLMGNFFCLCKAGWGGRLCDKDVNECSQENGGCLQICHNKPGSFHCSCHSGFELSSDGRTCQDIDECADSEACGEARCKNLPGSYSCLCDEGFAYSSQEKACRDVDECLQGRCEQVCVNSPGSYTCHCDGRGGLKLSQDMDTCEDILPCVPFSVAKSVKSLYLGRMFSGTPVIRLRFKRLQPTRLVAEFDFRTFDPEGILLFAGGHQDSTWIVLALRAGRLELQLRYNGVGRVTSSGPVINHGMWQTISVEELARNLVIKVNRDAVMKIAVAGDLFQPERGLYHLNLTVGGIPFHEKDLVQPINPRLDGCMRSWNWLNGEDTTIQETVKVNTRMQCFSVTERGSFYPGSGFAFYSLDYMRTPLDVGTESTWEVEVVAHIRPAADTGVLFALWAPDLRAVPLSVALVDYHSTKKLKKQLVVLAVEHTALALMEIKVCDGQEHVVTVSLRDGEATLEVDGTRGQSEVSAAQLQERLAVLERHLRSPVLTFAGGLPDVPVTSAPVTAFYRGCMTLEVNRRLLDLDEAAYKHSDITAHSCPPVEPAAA
# ASSAY METHOD TEXT: SPR Biacore T100, captured antibody, Gas6 analyte, first test
# Description: An anti-human IgG antibody was immobilized on a CM5 sensor chip (manufactured by GE Healthcare Japan Corp.) using Human Antibody Capture Kit (manufactured by GE Healthcare Japan Corp.) according to the attached manual. Each test antibody adjusted to 1 μg/mL was added for 10 seconds at a flow rate of 10 μL/min to flow cells. […] The obtained sensorgram was analyzed using Bia Evaluation Software (manufactured by GE Healthcare Japan Corp.), and the kinetic constant of each antibody was calculated.
pKd: −log10 of the molar value.
Overview of recorded pKd for various binders

| BINDER | pKd |
| --- | --- |
| hzKM5321 LV6HV4a antibody (antibody, V domains shown, Humanized; variant human IgG4 constant region (EU S228P, L235E, R409K), human kappa; also called B-27; LV6HV4a) VH: QIHLVQSGPELKKPGASVKISCKASGYTFTNYGMNWVRQAPGQGLEWMGWINTNTGEPTYTEEFKGRFVFSLDTSVTTAYLQISTLKAEDTAVYFCARDEGWFVYWGQGTLITVSS VL: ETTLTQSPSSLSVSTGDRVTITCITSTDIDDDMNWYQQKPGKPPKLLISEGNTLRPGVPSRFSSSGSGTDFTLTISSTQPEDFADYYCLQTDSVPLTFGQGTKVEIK | > 8.49 |

Supply recorded pKd for hzKM5321 LV6HV3a antibody (antibody, V domains shown, Humanized; variant human IgG4 constant region (EU S228P, L235E, R409K), human kappa; also called B-25; LV6HV3a) VH: QVHLVQSGPELKKPGASVKISCKASGYTFTNYGMNWVRQAPGQGLKWMGWINTNTGEPTYTEEFKGRFVFSLDTSVTTSYLQISTLKAEDTATYFCARDEGWFVYWGQGTLVTVSS VL: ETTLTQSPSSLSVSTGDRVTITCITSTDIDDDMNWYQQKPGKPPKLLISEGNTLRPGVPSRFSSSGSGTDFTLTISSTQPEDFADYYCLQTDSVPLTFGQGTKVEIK here.
> 8.67

Provide only the value of recorded pKd for hzKM5320 LV2bHV8 antibody (antibody, V domains shown, Humanized; variant human IgG4 constant region (EU S228P, L235E, R409K), human kappa; also called A-14) VH: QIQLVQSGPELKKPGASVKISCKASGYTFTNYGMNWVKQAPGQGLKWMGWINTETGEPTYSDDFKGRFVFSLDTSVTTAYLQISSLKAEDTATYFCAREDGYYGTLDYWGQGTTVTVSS VL: DVVMTQSPDSLAVSAGERVTINCKASQSVSNDVAWYQQKPGQSPKLLIYYASNRYTGVPDRFSGSGSGTDFTFTISSLQAEDVAVYYCQQDYSSPWTFGQGTKLEIK
> 8.01

Determine from records and report pKd for hzKM5321 LV6HV3b antibody (antibody, V domains shown, Humanized; variant human IgG4 constant region (EU S228P, L235E, R409K), human kappa; also called B-26; LV6HV3b) VH: QVHLVQSGSELKKPGASVKISCKASGYTFTNYGMNWVKQAPGQGLKWMGWINTNTGEPTYTEEFKGRFVFSLDTSVTTSYLQISTLKAEDTATYFCARDEGWFVYWGQGTLVTVSS VL: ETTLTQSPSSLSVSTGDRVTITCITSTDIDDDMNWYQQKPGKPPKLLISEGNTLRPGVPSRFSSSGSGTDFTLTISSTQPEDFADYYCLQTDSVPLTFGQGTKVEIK
> 8.73

Read the entry hzKM5320 LV3HV0 antibody (antibody, V domains shown, Humanized; variant human IgG4 constant region (EU S228P, L235E, R409K), human kappa; also called A-07) VH: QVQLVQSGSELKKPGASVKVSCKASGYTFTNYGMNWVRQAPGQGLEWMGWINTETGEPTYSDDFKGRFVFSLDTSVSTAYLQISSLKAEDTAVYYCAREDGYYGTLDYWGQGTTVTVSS VL: DVVMTQSPDSLAVSLGERVTINCKASQSVSNDVAWYQQKPGQSPKVLIYYASNRYTGVPDRFSGSGSGTDFTFTISSLQAEDVAVYFCQQDYSSPWTFGQGTKLEIK and write its reported pKd.
> 8.54

Where do these numbers come from? They come from patent US20180339041A1.
